# Ki per record follows
- measurement-target: α2C adrenergic receptor (Homo sapiens, UniProt P18825)
- Construct: Eurofins Cerep (contract screening)
- Sequence (P18825 whole entry): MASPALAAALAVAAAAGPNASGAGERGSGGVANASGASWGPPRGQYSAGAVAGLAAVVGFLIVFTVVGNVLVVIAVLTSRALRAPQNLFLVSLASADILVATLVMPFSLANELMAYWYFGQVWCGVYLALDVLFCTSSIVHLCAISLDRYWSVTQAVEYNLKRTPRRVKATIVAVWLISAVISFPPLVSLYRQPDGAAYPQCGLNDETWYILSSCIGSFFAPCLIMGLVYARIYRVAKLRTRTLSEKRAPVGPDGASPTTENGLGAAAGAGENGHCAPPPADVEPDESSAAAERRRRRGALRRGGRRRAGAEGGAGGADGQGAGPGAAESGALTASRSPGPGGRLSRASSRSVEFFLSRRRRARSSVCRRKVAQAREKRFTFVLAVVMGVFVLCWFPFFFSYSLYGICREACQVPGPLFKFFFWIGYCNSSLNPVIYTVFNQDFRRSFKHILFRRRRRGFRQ
- test-description: Radioligand binding assay (Eurofins Cerep), [3H]RX 821002 displacement
- condition-context: Ki (nM ± SEM) a2C-AR, Table 3-2; 3 independent experiments
Number only, in nM; omit the unit.

INSERT INTO measurements (smiles_str, measurement_target, reported_endpoint, readout_units, measured_number) VALUES
  ('CO/C=C(/C(=O)OC)C1CCN(CCc2c[nH]c3ccccc23)CC1', 'α2C adrenergic receptor (Homo sapiens, UniProt P18825)', 'Ki', 'nM', 830),
  ('COC(=O)CC1CCN(CCc2c[nH]c3c(OC)cccc23)CC1', 'α2C adrenergic receptor (Homo sapiens, UniProt P18825)', 'Ki', 'nM', 830);

Switching to the query record.
Report Ki from α2C adrenergic receptor (Homo sapiens, UniProt P18825) testing of COC(=O)CC1CCN(CCc2c[nH]c3cccc(OC)c23)CC1
69.3

* * *

Parameter: Ki. Scope: all listed entries.
- measurement-target: hKOR (Homo sapiens, UniProt P41145)
- Sequence (P41145 whole entry): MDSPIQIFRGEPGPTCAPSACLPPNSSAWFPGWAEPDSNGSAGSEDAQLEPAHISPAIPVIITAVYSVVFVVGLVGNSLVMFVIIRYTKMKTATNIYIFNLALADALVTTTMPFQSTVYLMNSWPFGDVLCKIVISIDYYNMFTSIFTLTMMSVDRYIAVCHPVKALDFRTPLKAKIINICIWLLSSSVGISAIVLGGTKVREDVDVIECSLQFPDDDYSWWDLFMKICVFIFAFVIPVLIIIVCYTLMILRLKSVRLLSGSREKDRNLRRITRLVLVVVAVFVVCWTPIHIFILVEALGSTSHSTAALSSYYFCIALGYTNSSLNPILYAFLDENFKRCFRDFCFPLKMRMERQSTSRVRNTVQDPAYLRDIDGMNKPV
- test-description: Radioligand binding assay (Eurofins Cerep), [3H]U69,593 displacement
- condition-context: Table A1, data summary #1; read-out: KOR Ki ± SEM
Give just the numeric value; nM need not be written.

Use the examples below as a reference point.
INSERT INTO results (compound, measured_number) VALUES
  ('CCCN(C)C(=O)/C(=C/OC)[C@H]1C[C@H]2c3[nH]c4cccc(OC)c4c3CCN2C[C@H]1CC', 2610),
  ('CC[C@@H]1CN2CCc3c([nH]c4cccc(OC)c34)[C@@H]2C[C@@H]1/C(=C\OC)C(=O)N(C)C', 3070),
  ('CC[C@@H]1CN2CC[C@@]3(O)C(=Nc4cccc(OC)c43)[C@@H]2C[C@@H]1/C(=C\OC)C(=O)OC [7-Hydroxy Mitragynine, reference compound]', 450);

Answer with the recorded Ki of CC[C@@H]1CN2CCc3c([nH]c4cccc(OC)c34)[C@@H]2C[C@@H]1/C(=C\OC)C(=O)OC [Mitragynine, mitragynine, reference compound] only.
1530

* * *

# reported pKi; entries follow
- measurement-target: hMOR (Homo sapiens, UniProt P35372)
- Sequence (P35372 whole entry): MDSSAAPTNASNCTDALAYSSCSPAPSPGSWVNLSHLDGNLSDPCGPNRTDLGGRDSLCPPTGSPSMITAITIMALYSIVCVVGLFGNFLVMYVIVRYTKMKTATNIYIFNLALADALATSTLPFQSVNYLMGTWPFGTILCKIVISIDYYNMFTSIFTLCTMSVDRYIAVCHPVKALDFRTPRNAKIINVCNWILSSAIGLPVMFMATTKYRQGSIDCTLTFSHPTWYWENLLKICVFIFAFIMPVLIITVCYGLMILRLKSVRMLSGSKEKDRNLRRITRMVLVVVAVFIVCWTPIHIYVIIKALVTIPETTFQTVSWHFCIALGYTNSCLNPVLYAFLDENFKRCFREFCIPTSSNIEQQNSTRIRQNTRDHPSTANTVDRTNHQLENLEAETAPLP
- test-description: Radioligand binding assay (Eurofins Cerep), [3H]DAMGO displacement
- condition-context: Table A4, data summary #2; read-out: MOR Ki ± SEM
// pKi is dimensionless: -log10 of concentration (M)

INSERT INTO results (compound, reported_endpoint, measured_number) VALUES
  ('CCNC(=O)/C(=C/OC)[C@H]1C[C@H]2c3[nH]c4cccc(OC)c4c3CCN2C[C@H]1CC [SUSM-32]', 'pKi', 5.37),
  ('CC[C@@H]1CN2CCc3c([nH]c4cccc(OC)c34)[C@@H]2C[C@@H]1/C(=C\OC)C(=O)NC1CCCC1 [SUSM-506]', 'pKi', 5.86),
  ('CC[C@@H]1CN2CCc3c([nH]c4cccc(OC)c34)[C@@H]2C[C@@H]1/C(=C\OC)C(=O)NC1CCCCC1 [SUSM-519]', 'pKi', 5.66);

# assay system hMOR (Homo sapiens, UniProt P35372): give pKi of [2H]C([2H])([2H])N(C(=O)/C(=C/OC)[C@H]1C[C@H]2c3[nH]c4cccc(OC)c4c3CCN2C[C@H]1CC)C([2H])([2H])[2H] [SUSM-566]
6.48
